Test system: S. aureus ATCC2977
Assay summary: MIC, agar diffusion method (European Pharmacopoeia 3rd Ed.)
Assay type: cell-based
Consider the following molecules; for each one, report its MIC values (concentrations in μg/ml required for 90% inhibition).
// units = µg/mL; emit number, no label

[Q] Give reported MIC values (concentrations in μg/ml required for 90% inhibition) value for CC(=O)O[C@H]1C[C@@]2(C)[C@@H](C[C@@H](O)[C@H]3[C@@]4(C)CC[C@@H](O)[C@@H](C)[C@@H]4CC[C@@]32C)[C@H]1[C@H](CCCC(C)C)C(=O)O [Compound 102, 17(S),20(S),24,25-Tetrahydrofusidic Acid]
[A] 0.02

[Q] Give reported MIC values (concentrations in μg/ml required for 90% inhibition) value for CC(=O)OC1CC2(C)C(CC(O)C3C4(C)CCC(O)C(C)C4CCC32C)C1C(CCC=C(C)C)C(=O)O [Compound 101, 17(S),20(S)-Dihydrofusidic Acid]
[A] 0.001

[Q] Give reported MIC values (concentrations in μg/ml required for 90% inhibition) value for CCC(=O)OC1CC2(C)C(CC(O)C3C4(C)CCC(O)C(C)C4CCC32C)C1C(CCC=C(C)C)C(=O)O (stereo not drawn)
[A] 0.19

[Q] Give reported MIC values (concentrations in μg/ml required for 90% inhibition) value for CCO[C@H]1C[C@@]2(C)[C@@H](C[C@@H](O)[C@H]3[C@@]4(C)CC[C@@H](O)[C@@H](C)[C@@H]4CC[C@@]32C)[C@H]1[C@H](CCC=C(C)C)C(=O)O
[A] 0.02

[Q] Give reported MIC values (concentrations in μg/ml required for 90% inhibition) value for CC(C)=CCCC(C(=O)O)C1C(OC(=O)C2CCCCC2)CC2(C)C1CC(O)C1C3(C)CCC(O)C(C)C3CCC12C (stereo not drawn)
[A] 16

[Q] Give reported MIC values (concentrations in μg/ml required for 90% inhibition) value for COCO[C@H]1C[C@@]2(C)[C@@H](C[C@@H](O)[C@H]3[C@@]4(C)CC[C@@H](O)[C@@H](C)[C@@H]4CC[C@@]32C)[C@H]1[C@H](CCC=C(C)C)C(=O)O
[A] 0.19

----------
Consider the following molecules; for each one, report its MIC values (concentrations in μg/ml required for 90% inhibition).
Tested on: S. aureus Leoid CJ234(R)
Assay summary: MIC, agar diffusion method (European Pharmacopoeia 3rd Ed.)
Type: cell-based
Assay conditions: MRSA and Rifampicin resistant
// units = µg/mL; emit number, no label

[Q] Give reported MIC values (concentrations in μg/ml required for 90% inhibition) value for CC(=O)OC1CC2(C)C(CC(O)C3C4(C)CCC(O)C(C)C4CCC32C)C1C(CCC=C(C)C)C(=O)O [Compound 101, 17(S),20(S)-Dihydrofusidic Acid]
[A] 0.001

[Q] Give reported MIC values (concentrations in μg/ml required for 90% inhibition) value for CCO[C@H]1C[C@@]2(C)[C@@H](C[C@@H](O)[C@H]3[C@@]4(C)CC[C@@H](O)[C@@H](C)[C@@H]4CC[C@@]32C)[C@H]1[C@H](CCC=C(C)C)C(=O)O
[A] 0.007

[Q] Give reported MIC values (concentrations in μg/ml required for 90% inhibition) value for CC(=O)O[C@H]1C[C@@]2(C)[C@@H](C[C@@H](O)[C@H]3[C@@]4(C)CC[C@@H](O)[C@@H](C)[C@@H]4CC[C@@]32C)[C@H]1[C@H](CCCC(C)C)C(=O)O [Compound 102, 17(S),20(S),24,25-Tetrahydrofusidic Acid]
[A] 0.009

[Q] Give reported MIC values (concentrations in μg/ml required for 90% inhibition) value for CCC(=O)OC1CC2(C)C(CC(O)C3C4(C)CCC(O)C(C)C4CCC32C)C1C(CCC=C(C)C)C(=O)O (stereo not drawn)
[A] 0.063

[Q] Give reported MIC values (concentrations in μg/ml required for 90% inhibition) value for CC(C)=CCCC(C(=O)O)C1C(OC(=O)C2CCCCC2)CC2(C)C1CC(O)C1C3(C)CCC(O)C(C)C3CCC12C (stereo not drawn)
[A] 16
